meta.source: ChEMBL document CHEMBL1961873

Each item that follows carries a reported inhibition.
Target: Serine/threonine-protein kinase D2 (Homo sapiens);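 further: mean value of PRKD2 inhibition, from the GSK PKIS screening panel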
Sequence (whole entry): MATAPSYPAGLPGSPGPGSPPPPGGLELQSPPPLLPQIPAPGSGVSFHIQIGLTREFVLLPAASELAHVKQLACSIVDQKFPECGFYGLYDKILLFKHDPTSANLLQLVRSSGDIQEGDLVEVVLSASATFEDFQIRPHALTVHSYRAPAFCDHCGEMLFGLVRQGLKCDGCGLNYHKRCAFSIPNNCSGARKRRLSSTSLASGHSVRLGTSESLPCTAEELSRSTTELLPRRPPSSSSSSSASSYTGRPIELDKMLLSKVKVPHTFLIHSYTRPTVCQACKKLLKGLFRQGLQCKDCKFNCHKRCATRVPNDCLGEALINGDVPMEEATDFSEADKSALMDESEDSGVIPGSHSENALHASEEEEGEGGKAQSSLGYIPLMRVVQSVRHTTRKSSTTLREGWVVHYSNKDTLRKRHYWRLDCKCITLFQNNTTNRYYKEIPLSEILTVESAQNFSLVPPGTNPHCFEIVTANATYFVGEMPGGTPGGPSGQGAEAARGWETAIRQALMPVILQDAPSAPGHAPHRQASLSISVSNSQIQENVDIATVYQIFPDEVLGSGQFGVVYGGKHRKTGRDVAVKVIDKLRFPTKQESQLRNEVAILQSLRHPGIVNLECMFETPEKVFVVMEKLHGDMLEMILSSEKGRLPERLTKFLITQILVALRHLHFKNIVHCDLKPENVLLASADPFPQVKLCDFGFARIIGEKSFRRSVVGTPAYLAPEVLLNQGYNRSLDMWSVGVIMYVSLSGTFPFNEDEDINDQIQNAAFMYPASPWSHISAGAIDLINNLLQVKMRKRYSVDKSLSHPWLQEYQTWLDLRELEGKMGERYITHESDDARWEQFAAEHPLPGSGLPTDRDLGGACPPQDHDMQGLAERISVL
Conditions: at 1 µM
State the answer as a number, implicitly in %.

Endpoint output: inhibition of "COC(=O)Nc1nc2ccc(Oc3ccc(NC(=O)Nc4cccc(Cl)c4)cc3)cc2[nH]1" . Value?
2.04

Also "CCN(CC)S(=O)(=O)c1ccc(OC)c(Nc2ncc(-c3ccccc3)o2)c1" ?
1.51

Same lookup for "NS(=O)(=O)c1ccc(N/N=C2\C(=O)Nc3ccc4ncccc4c32)cc1" , please.
55.7

----------
We begin with a simple list: items and their reported inhibition.
biological target: CDK3/Cyclin E (Homo sapiens) (UniProt P24864+Q00526); details: at 1 µM
Sequence (P24864 whole entry, looked up): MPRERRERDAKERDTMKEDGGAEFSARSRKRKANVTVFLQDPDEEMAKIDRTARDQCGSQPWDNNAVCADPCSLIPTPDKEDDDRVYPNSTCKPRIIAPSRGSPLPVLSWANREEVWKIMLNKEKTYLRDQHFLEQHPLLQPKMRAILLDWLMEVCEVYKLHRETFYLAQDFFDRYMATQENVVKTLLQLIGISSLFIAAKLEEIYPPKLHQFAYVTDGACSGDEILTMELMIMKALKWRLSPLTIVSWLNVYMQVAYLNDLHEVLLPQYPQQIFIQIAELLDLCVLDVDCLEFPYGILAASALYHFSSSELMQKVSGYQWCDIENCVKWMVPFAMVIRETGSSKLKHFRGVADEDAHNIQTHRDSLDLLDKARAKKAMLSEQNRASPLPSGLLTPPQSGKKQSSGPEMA
Sequence (Q00526 whole entry, looked up): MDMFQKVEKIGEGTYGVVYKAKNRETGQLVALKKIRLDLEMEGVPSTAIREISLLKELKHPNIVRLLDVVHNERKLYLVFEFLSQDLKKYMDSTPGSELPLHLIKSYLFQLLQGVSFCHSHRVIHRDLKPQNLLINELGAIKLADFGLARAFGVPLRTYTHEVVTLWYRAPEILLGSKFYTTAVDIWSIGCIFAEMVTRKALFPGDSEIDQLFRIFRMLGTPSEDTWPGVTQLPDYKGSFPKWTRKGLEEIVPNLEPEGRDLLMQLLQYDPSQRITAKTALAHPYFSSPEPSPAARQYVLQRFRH
Could you give me the number in %? Just the number is fine.

Requested read-out inhibition, target or system CDK3/Cyclin E (Homo sapiens) (UniProt P24864+Q00526), entry "Nc1nc(-c2ccc(F)cc2)c(-c2ccc3ncccc3n2)s1"
1.75

Item: "CS(=O)(=O)CCNCc1coc(-c2ccc3ncnc(Nc4ccc(OCc5ccccc5)cc4)c3c2)c1"
-1.98

And for "Clc1ccc(-c2nn3ncccc3c2-c2ccnc(Nc3ccccc3)n2)cc1" ?
-0.36

And what about the compound "CNC(=O)c1cncc(/C=C/c2ccccc2Cl)c1" ?
-0.07

Can you check "COc1cccc(-c2c[nH]c3c(N/N=C/c4ccncc4)ncnc23)c1" next?
51.3

Further cases:
CDK3/Cyclin E (Homo sapiens) (UniProt P24864+Q00526) / inhibition / CC1=C(C(=O)Nc2cc(Cl)c3[nH]ncc3c2)C(c2ccc(C(F)(F)F)cc2)CC(=O)N1 (stereo not given) : value?;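 further: each figure is a mean percent inhibition of the CDK3/cyclin E complex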
0.3

Also need "c1ccc(COc2ccc(Nc3ncnc4ccc(-c5ccco5)cc34)cc2)cc1" , thanks.
-1.75

Entry "CC(=O)Nc1cccc(C#Cc2cncnc2Nc2ccc(OCc3cccc(F)c3)c(Cl)c2)c1" please
0.86

Also "O=S(=O)(CCNCc1ccc(-c2ccc3ncnc(Nc4ccc(OCc5cccc(F)c5)c(Cl)c4)c3c2)o1)c1ccccc1" , if possible.
-1.98

Could you do the same for "Cc1ccc2c(-c3ccnc(Nc4ccccc4)n3)c(-c3ccc(F)cc3)nn2n1" , please?
2.55
